Each entry below lists one item and its recorded TGI value.
Test system: A498
protocol.notes: Growth inhibition of human A498 cells after 48 hrs by SRB protein assay
Assay type: functional
condition.description: A498, 48 h, read-out: Log TGI (converted)

[
  {
    "compound": "O=C(CC1Sc2ncnn2C1=O)Nc1ccc(Br)cc1 (stereo not given)",
    "TGI": "57.5 µM"
  },
  {
    "compound": "O=C(CC1Sc2ncnn2C1=O)Nc1ccc(Cl)cc1 (stereo not given)",
    "TGI": "> 100 µM"
  },
  {
    "compound": "O=c1/c(=C/c2ccc(F)cc2)sc2ncnn12",
    "TGI": "> 100 µM"
  },
  {
    "compound": "COc1ccc(NC(=O)CC2Sc3ncnn3C2=O)cc1 (stereo not given)",
    "TGI": "57.5 µM"
  },
  {
    "compound": "O=c1/c(=C/c2ccc(Cl)cc2)sc2ncnn12",
    "TGI": "33.1 µM"
  }
]
